B1: IQUB (parent)
chain: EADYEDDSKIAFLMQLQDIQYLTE

Variants of: B1
Assay: protein stability index of a GFP-peptide fusion (GPS, HEK-293T) (PSI 1-6); higher = more stable;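 further: lentivirally expressed fusions sorted by FACS into six bins by GFP to DsRed ratio, PSI derived from sequencing read proportions per bin multiplied by bin number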
Settings: c terminus: a fixed tail appended
PROPERTY: protein stability index
Respond using a number only.

Known protein stability index results, listed for orientation:
{"RESIDUE CHANGE": "E5I", "protein stability index": 2.29}
{"RESIDUE CHANGE": "E5T", "protein stability index": 3.5}
{"RESIDUE CHANGE": "Q15N", "protein stability index": 2.84}
{"RESIDUE CHANGE": "A2V", "protein stability index": 2.99}
{"RESIDUE CHANGE": "E24P", "protein stability index": 3.29}
{"RESIDUE CHANGE": "E1F", "protein stability index": 1.99}

Would you kindly look at the next entry?
What measured protein stability index goes with "F12A" ?
3.89
